# method_summary: human hepatoma cell viability loss – ATP luminescence, cytotoxicity control for P. falciparum antimalarial project, primary screen (AID 2303);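 also: 0% = DMSO wells and 100% = digitonin-killed cells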
# assay_context: HepG2 viability, 24-48 h, at 10 µM, hits give high values
Please go through the items and note down their inhibition.
Give bare numbers, in %.

Query: Dear colleague, I am looking for the recorded inhibition of the following compound: O=C(O[C@@H]1CN[C@H](C#Cc2cc3ncnc(Nc4ccc5c(cnn5Cc5cccc(F)c5)c4)c3s2)C1)N1CCCC1
Response: 9

Below are some compounds; for each one, tell me its inhibition.
1. CC(=O)NC1=NC(C)(C)N(OCCCOc2ccc(Cl)c(Cl)c2)C(NC(C)=O)=N1
2. c1ccc(-c2cc(NCCCn3ccnc3)nc(-c3cccnc3)n2)cc1
3. Clc1ccc(OCc2ccccc2)c(Cc2ccc(-c3nc4ccncc4[nH]3)o2)c1
4. Cc1cccc2[nH]c(-c3ccc(-c4ccc(CN5CCN(CC6CCCN(C)C6)CC5)cc4)s3)nc12 (centres undefined)
5. CNC(=O)NC1CCN(Cc2c(-c3cccs3)nc3ccccc3c2C(=O)N[C@@H](C)C2CCCCC2)CC1
6. COc1ccc(-c2ccc(NC(=O)c3cccc(Cl)c3)c(F)c2)cc1CNC(C)C

Response:
65
15
2
63
5
19

Give measured inhibition for every item shown.
1. Cc1nc2ccc3ccc(CNc4ccc(C(=O)CC(CCC(=O)O)C(=O)O)cc4)cc3c2c(=O)[nH]1 (centres undefined)
2. CC(=O)c1ccc(-c2ccc(C(=O)NCCCCN3CCC(c4ccc5c(c4OCC(N)=O)CCCC5)CC3)cc2)s1

Response:
51
26

Below is a list of compounds. For each, state its recorded inhibition.
1. CC(C)N1CCN(C(=O)c2ccc(CNCCCN3CCN(c4cccc(Cl)c4Cl)CC3)o2)CC1
2. Fc1ccc2nc(-c3ccc(-c4ccc(CNCCc5ccncc5)cc4)s3)[nH]c2c1

Response:
1: 41; 2: 34

For every item below, please supply its inhibition.
1. COc1ccc(C2SCC(=O)N2CCc2ccc(OC)c(OC)c2)cc1 (centres undefined)
2. COc1ccc2c(c1)CCCC2NCCCCNC(=O)c1ccc(NC(=O)c2ccc(Cl)cc2)cc1 (centres undefined)
3. O=C(NOCc1ccccc1)c1cc(Cl)ccc1O
4. O=C1CCCN1CCCNCc1cccc(-c2ccc(-c3nc4ccc(C(F)(F)F)cc4[nH]3)cc2)c1
5. Cc1cc(N[C@@H](Cc2ccccc2)C(=O)NCc2cccc(F)c2)nc(Nc2ccccc2)n1
6. CCCCSc1nc2c(c(=O)n1Cc1ccco1)C1(CCCCC1)Cc1ccccc1-2
7. O=C(c1ccc(-c2ccc(Cl)cc2)o1)N1CCc2cc3nccc(N4CCN5CCC[C@H]5C4)c3cc21

Response:
19
27
2
15
20
13
1

Query: I would be grateful if you could share the reported inhibition for Cc1nnsc1C(=O)Nc1cccc(-c2ccc(-c3nc4ccc(F)cc4[nH]3)cc2)c1 .
Response: 51
